Molecular target: defatted human serum albumin (Sigma albumin) (Homo sapiens)
Test: Drug binding by ultrafiltration in Sigma albumin solution
Conditions: isolated protein, pH 7.4

{"structure notation": "C[C@H]1O[C@@H](O[C@H]2[C@@H](O)C[C@H](O[C@H]3[C@@H](O)C[C@H](O[C@H]4CC[C@@]5(C)[C@H](CC[C@@H]6[C@@H]5CC[C@]5(C)[C@@H](C7=CC(=O)OC7)CC[C@]65O)C4)O[C@@H]3C)O[C@@H]2C)C[C@H](O)[C@@H]1O", "fraction unbound at 30 min": 0.051}

* * *

Molecular target: Pharmaceutical-grade albumin Pharmacia & Upjohn (Homo sapiens, UniProt P02768)
Details: human, isolated protein, pH 7.4

{"structure notation": "C[C@H]1O[C@@H](O[C@H]2[C@@H](O)C[C@H](O[C@H]3[C@@H](O)C[C@H](O[C@H]4CC[C@@]5(C)[C@H](CC[C@@H]6[C@@H]5CC[C@]5(C)[C@@H](C7=CC(=O)OC7)CC[C@]65O)C4)O[C@@H]3C)O[C@@H]2C)C[C@H](O)[C@@H]1O", "fraction unbound at 30 min": 0.115}

* * *

Molecular target: Human serum (Homo sapiens)
Assay: Drug binding by ultrafiltration in native human serum
Settings: human, serum, pH 7.4

{"structure notation": "C[C@H]1O[C@@H](O[C@H]2[C@@H](O)C[C@H](O[C@H]3[C@@H](O)C[C@H](O[C@H]4CC[C@@]5(C)[C@H](CC[C@@H]6[C@@H]5CC[C@]5(C)[C@@H](C7=CC(=O)OC7)CC[C@]65O)C4)O[C@@H]3C)O[C@@H]2C)C[C@H](O)[C@@H]1O", "target or system": "Human serum (Homo sapiens)", "fraction unbound at 30 min": 0.049}

* * *

Target: Pharmaceutical-grade albumin Baxter/Immuno (Homo sapiens, UniProt P02768)
Sequence (P02768 25-609): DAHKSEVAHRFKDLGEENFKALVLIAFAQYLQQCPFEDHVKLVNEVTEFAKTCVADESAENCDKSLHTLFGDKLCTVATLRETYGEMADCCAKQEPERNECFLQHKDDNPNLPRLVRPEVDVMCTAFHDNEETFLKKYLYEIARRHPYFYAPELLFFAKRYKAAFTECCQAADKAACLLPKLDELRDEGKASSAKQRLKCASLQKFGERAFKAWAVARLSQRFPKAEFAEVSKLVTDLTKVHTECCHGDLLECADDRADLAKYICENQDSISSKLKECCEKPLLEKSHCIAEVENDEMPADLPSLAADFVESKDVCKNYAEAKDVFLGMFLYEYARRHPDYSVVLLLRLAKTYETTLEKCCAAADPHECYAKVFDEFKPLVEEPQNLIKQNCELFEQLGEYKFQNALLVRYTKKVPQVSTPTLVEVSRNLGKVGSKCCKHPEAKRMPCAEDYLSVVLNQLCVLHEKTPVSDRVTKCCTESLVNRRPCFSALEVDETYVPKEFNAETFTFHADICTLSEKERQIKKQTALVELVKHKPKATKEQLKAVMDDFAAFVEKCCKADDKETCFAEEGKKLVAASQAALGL
Details: human, isolated protein, pH 7.4

{"compound": "C[C@H]1O[C@@H](O[C@H]2[C@@H](O)C[C@H](O[C@H]3[C@@H](O)C[C@H](O[C@H]4CC[C@@]5(C)[C@H](CC[C@@H]6[C@@H]5CC[C@]5(C)[C@@H](C7=CC(=O)OC7)CC[C@]65O)C4)O[C@@H]3C)O[C@@H]2C)C[C@H](O)[C@@H]1O [Digitoxin, digitoxin]", "fraction unbound at 30 min": 0.111}

These measurements were taken from paper PMC406516.
